Quick reference: pKd of the listed items.
# target-or-system: T1, human renalase-1 (Homo sapiens, UniProt Q5VYX0 18-342, limits assumed)
# T1 construct: Whole entry named for renalase-1 (Glu at position 37); also called R1; HuRenalase-1
# T1 sequence (Q5VYX0 18-342 limits assumed): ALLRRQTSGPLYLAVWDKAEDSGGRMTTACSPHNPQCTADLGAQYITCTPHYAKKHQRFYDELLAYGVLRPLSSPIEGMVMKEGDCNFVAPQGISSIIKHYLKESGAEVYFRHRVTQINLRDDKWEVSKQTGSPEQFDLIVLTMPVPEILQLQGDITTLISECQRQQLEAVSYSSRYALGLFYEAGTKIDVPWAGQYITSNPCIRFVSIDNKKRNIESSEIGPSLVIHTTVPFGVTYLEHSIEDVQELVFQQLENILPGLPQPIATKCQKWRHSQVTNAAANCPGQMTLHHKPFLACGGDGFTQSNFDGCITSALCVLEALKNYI
# method-notes: SPR, Biacore T100; biotinylated antibody captured on streptavidin chip, renalase-1 in solution
pKd: −log10 of the molar value.

binder	pKd
anti-renalase monoclonal antibody 1D-28-4 (antibody, V domains shown, Rabbit monoclonal IgG raised against peptide 1D (RP-220); also called m28-RNLS; Bio-1D 28-4) VH: QSVEESGGRLVTPGTPLTLTCTVSGFSLSSFAVGWVRQAPGKGLEYIGIISSVGITRYASWAAGRFTISKTSTTVDLKITSPTTEDTATYFCARYGYSGDVNRLDLWGQGTLVTVSS VL: AQVLTQTASPVSAAVGGTVTINCQASQSVYDNNNLAWYQQKPGQPPKQLIYGASTLASGVSSRFKGSGSGTQFTLTISGVQCDDAATYYCLGEFSCSSADCFAFGGGTEVVVKG	9.50
anti-renalase monoclonal antibody 1F-42-7 (antibody, V domains shown, Rabbit monoclonal IgG raised against peptide 1F; Biotinylated in the Biacore study; also called Bio-1F 42-7) VH: QSVKESEGGLFKPTDTLTLTCTVSGFSLTTYGVTWVRQAPGNGLEWIGLIGDRGTTYYASWVNGRSTITRNTNLNTVTLKMTRLTAADTATYFCARGSGYGARIWGPGTLVTVAS VL: AQVLTQTPSPMSAALGGTVTINCQSSQTVYNNNYLSWYQQKPGQPPKLLIYETSKLSSGVPPRFSGSGSGTQFTLTISSVQCDDAATYYCQGGYSGVDFMAFGGGTEVVVKG	8.62
anti-renalase monoclonal antibody 1F-26-1 (antibody, V domains shown, Rabbit monoclonal IgG raised against peptide 1F; Biotinylated in the Biacore study; also called Bio-1F 26-1) VH: QSVKESEGGLFKPTDTLTLTCTVSGFSLSSYGVTWVRQAPGNGLEWIGLIGDRGTTFYASWAKSRSTITRNTNLNTVTLKMTRLTAADTATYFCARGSGYGARIWGPGTLVTVSS VL: AQVLTQTPSPVSAAVGGTVTINCQSSQSVYKNNYLAWYQQKPGQPPKLLIYETSKLASGVPPRFSGSGSGTQFTLTISSVQCDDAATYYCQGGYSGVDFMAFGGGTEVVVKG	8.65
anti-renalase monoclonal antibody 1D-37-10 (antibody, V domains shown, Rabbit monoclonal IgG raised against peptide 1D (RP-220); Biotinylated in the Biacore study; also called m37-RNLS; Bio-1D 37-10) VH: QSVEESGGRLVTPGGSLTLTCTVSGFSLSDYAIIWVRQAPGKGLEYIAIIGSSGDTFYATWAKGRFTISKTSTTVDLKMTSLTAADTATYFCAPRYAGTTDYHDAFDPWGPGTLVTVSS VL: EVVMTQTPASMEAPMGGTVTIKCQASQNIYNYLSWYQQKPGQPPKLLVYKASTLTSGVPSRFKGSGSGTQFTLTISDLECADAATYYCQINYSIYNHYNIIFGGGTEVVVKG	8.57
